assay: viability profiling in MM1S myeloma cells – cell-based, resazurin fluorescence, basal, 24 h, PK04 Diversity Set, profiling panel (AID 1174); conditions: higher = more signal, called active from +8 up or from −8 down;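 further: MM1S multiple myeloma cell line; test concentration not given here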
Calls of active or inactive are those of the source.
Readout: z-score

Q) Supply measured z-score of COCCCNC(=O)[C@@]1(Cc2ccccc2)N=C(c2ccc(OCCCO)cc2)O[C@H]1c1ccccc1CN=[N+]=[N-] in your reply.
A) -0.78 (inactive)

Q) Supply measured z-score of COc1cc(CO)cc(I)c1O[C@H]1C=C(C(=O)NCCO)C[C@@H](N(C(=O)c2cc3ccccc3oc2=O)C2CCCCCC2)[C@@H]1O in your reply.
A) 1.11 (inactive)

Q) Supply measured z-score of O=C1C2C=CC(C(O)C=Cc3ccc([N+](=O)[O-])cc3)N(n3cnnc3)C2C(=O)N1Cc1ccccc1 (centres undefined) in your reply.
A) -0.519 (inactive)

Q) Supply measured z-score of CCCCCCCCCCC(O)C1C=CC2C(=O)NC(=O)C2N1Nc1ccc(Cl)cc1Cl (centres undefined) in your reply.
A) -1.76 (inactive)

Cited source for all entries: PubChem BioAssay
